Target: trypsin
Experiment: TRF, 10 ug/mL Fab on trypsin
endpoint: TRF signal
The reply should be a number, written without any unit.

Return reported TRF signal; argument: KB_C09 Fab (Fab, V domains shown) VH: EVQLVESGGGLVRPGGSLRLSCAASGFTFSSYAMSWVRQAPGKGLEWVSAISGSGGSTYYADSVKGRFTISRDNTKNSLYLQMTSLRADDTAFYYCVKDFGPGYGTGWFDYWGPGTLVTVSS VL: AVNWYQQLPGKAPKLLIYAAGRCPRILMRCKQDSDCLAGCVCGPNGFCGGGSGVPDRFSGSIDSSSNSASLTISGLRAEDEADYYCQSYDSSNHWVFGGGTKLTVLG 289000

These data points were gathered from patent US20230331827A1.
